Target: KasA (Mycobacterium tuberculosis)
Assay type: biochemical
Sequence (P9WQD9 whole entry): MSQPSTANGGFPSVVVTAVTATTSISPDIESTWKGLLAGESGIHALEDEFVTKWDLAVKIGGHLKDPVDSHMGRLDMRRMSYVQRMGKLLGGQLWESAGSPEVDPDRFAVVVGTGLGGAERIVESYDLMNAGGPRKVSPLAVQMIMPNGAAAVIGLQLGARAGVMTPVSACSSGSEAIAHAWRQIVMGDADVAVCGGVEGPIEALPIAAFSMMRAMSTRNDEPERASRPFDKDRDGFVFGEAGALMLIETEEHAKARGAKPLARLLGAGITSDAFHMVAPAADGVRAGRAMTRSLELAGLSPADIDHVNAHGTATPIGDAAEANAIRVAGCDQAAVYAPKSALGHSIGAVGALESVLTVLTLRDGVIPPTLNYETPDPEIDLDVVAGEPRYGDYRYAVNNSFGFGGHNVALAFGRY
METRIC_NAME: Kd (µM)
# number only, unit µM dropped from output

Name the recorded Kd for CCCCS(=O)(=O)N(C)c1ccc2cnn(C)c2c1 .
4.5

====

Biological target: Pks11
METRIC_NAME: Kd
Please make sure the unit comes right after the number.

Find the recorded Kd belonging to CCCCS(=O)(=O)Nc1ccc2cnn(C)c2c1 [GSK3011724A] and report it.
1400 nM

====

Biological target: NQO2 (Homo sapiens, UniProt P16083)
Sequence (P16083 1-231): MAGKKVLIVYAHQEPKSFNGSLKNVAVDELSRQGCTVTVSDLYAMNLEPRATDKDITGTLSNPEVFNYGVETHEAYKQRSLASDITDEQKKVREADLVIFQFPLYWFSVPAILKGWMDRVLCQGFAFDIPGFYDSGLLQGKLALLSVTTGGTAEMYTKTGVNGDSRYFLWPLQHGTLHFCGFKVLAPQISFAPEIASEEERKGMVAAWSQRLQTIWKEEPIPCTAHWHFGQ
pKd: −log10 of the molar value.
METRIC_NAME: pKd

# get_value(readout='pKd', item= CCCCS(=O)(=O)Nc1ccc2cnn(C)c2c1 [GSK3011724A] )
5.22 to 5.40

====

Biological target: KasA (Mycobacterium tuberculosis)
Construct: recombinant KasA from pET28a-kasA
Test: […] Å co-crystal structure; […]; also chemoproteomic Kd app […] and […] enzyme inhibition at […]
Assay type: binding
METRIC_NAME: Kd

For the compound shown here, CCCCS(=O)(=O)Nc1ccc2cnn(C)c2c1 [GSK3011724A] , give the reported Kd.
0.01 to 0.02 µM

====

Target: Pks10 (Mycobacterium tuberculosis)
Sequence (Q7VEV2 whole entry, looked up): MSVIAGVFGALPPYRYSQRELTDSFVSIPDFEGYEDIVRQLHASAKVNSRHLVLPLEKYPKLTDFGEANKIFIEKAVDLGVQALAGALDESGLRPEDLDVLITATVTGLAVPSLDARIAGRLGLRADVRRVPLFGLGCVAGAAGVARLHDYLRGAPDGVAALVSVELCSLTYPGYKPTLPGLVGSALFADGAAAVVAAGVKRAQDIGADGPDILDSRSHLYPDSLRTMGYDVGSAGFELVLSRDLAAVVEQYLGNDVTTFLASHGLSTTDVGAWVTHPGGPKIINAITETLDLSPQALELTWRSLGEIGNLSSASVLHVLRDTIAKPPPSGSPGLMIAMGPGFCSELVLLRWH
METRIC_NAME: Kd
Include the unit after the number when you answer.

Can you look up Kd on Pks10 (Mycobacterium tuberculosis) for CCCCS(=O)(=O)Nc1ccc2cnn(C)c2c1 [GSK3011724A] ?
1400 nM
